System: HIV-1 RF virus in CEM-SS cells
Test: HIV-1 cell protection assay (XTT dye reduction)
Format: cell-based
Settings: Human immunodeficiency virus 1, CEM-SS, 144 h
quantity-name: pEC50
Quick note: pEC50 means taking -log10 of the concentration in moles per liter.

IN: Query (compound): O=C1c2ncc3c(c(S(=O)(=O)N4CCCC4)cn3Cc3ccc(F)cc3)c2CCN1O [Example 13] ; field requested: pEC50
OUT: 8.52

IN: Now try CN(C)Cc1cn(Cc2ccc(F)cc2)c2cnc3c(c12)CCN(O)C3=O [Example 12] .
OUT: 7.89

IN: Record: O=C1c2ncc3c(c(CN4CCC(F)(F)C4)cn3Cc3ccc(F)cc3)c2CCN1O [Example 37]
OUT: 8.82

IN: Try this compound next: O=C1c2ncc3c(c(CO)cn3Cc3ccc(F)cc3)c2CCN1O [Example 25]
OUT: 8.52

IN: What about this compound? COC1CCN(C(=O)c2cn(Cc3ccc(F)cc3)c3cnc4c(c23)CCN(O)C4=O)CC1 [Example 15]
OUT: 7.55

IN: Another compound to look at: COCCN(C)Cc1cn(Cc2ccc(F)cc2)c2cnc3c(c12)CCN(O)C3=O [Example 77]
OUT: 8.70

IN: Let us now turn to COC[C@H]1CCCN1C(=O)c1cn(Cc2ccc(F)cc2)c2cnc3c(c12)CCN(O)C3=O [Example 19]
OUT: 8.35

IN: Now try O=C1c2ncc3c(c(CN4CCCCC4)cn3Cc3ccc(F)cc3)c2CCN1O [Example 38] .
OUT: 8.27

IN: Same question, CC(=O)c1cn(Cc2ccc(F)cc2)c2cnc3c(c12)CCN(O)C3=O [Example 68] this time
OUT: 8.52
